biological target: KRAS G12C-BRAF complex (Homo sapiens (Human), UniProt P01116+P62937, G12C); experiment: KRAS G12C-BRAF NanoBit assay; assay type: cell-based; conditions: HEK293 cells, SmBit-KRAS G12C and BRAF RBD-LgBit, 3 hours incubation
Sequence (P01116-2 other isoform, or with tags, fused parts or gaps G12C): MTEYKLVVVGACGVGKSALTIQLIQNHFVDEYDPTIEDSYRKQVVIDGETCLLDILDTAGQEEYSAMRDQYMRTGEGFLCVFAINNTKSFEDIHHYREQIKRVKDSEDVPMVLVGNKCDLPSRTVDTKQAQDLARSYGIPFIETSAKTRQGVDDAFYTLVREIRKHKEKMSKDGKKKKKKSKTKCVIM
Sequence (P62937 whole entry): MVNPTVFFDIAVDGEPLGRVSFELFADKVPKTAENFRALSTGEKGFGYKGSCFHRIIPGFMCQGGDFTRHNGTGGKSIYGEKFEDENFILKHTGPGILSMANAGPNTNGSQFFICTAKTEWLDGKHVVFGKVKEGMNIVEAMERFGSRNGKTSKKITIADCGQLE
MEASUREMENT_LABEL: pIC50
# pIC50 = -log10(concentration in molar units)

Example results:
[
  {
    "COMPOUND": "CCn1c(-c2cccnc2[C@H](C)OC)c2c3cc(ccc31)-c1cc(O)cc(c1)C[C@H](NC(=O)[C@H](C(C)C)N(C)C(=O)[C@H]1CCN(C(=O)C(F)Cl)C1)C(=O)N1CCC[C@H](N1)C(=O)OCC(C)(C)C2 (stereo partly drawn)",
    "pIC50": 7.17
  },
  {
    "COMPOUND": "CO[C@@H](C)c1ncc(N2CCN(C)CC2)cc1-c1c2c3cc(ccc3n1CC(F)(F)F)-c1csc(n1)C[C@H](NC(=O)[C@H](C(C)C)N1CC[C@]3(CCN(C(=O)[C@H](F)Cl)C3)C1=O)C(=O)N1CCC[C@H](N1)C(=O)OCC(C)(C)C2",
    "pIC50": 7.44
  }
]

Fill blank: measured pIC50 of the compound CCn1c(-c2cc(N3CCN(C)CC3)cnc2[C@H](C)OC)c2c3cc(ccc31)-c1cc(O)cc(c1)C[C@H](NC(=O)[C@H](C(C)C)N(C)C(=O)[C@H]1CCN(C(=O)[C@H](F)Cl)C1)C(=O)N1CCC[C@H](N1)C(=O)OCC(C)(C)C2 (atropisomer, axis not shown; (M)) is ____.
7.43

###

test system: KRAS G12V in SW620; assay: pERK inhibition assay, SW620; assay type: cell-based, human; conditions: Homo sapiens, SW-620, SW620 cells, 4 hours incubation
MEASUREMENT_LABEL: log10(IC50) (log10 of the value in nM)
Short version: log10 scale, IC50, nM.

Example results:
[
  {
    "COMPOUND": "C#CC1CCN(C(=O)N(C)[C@H](C(=O)N[C@H]2Cc3cc(O)cc(c3)-c3ccc4c(c3)c(c(-c3cccnc3[C@H](C)OC)n4CC)CC(C)(C)COC(=O)[C@@H]3CCCN(N3)C2=O)C(C)C)CC1 (atropisomer, axis not shown; (M)) [Example 15]",
    "log10(IC50)": 1.83
  },
  {
    "COMPOUND": "CCn1c(-c2cccnc2[C@H](C)OC)c2c3cc(ccc31)-c1cc(O)cc(c1)C[C@H](NC(=O)[C@H](C(C)C)N(C)C(=O)[C@H]1CCN(C(=O)/C=C/n3cncn3)C1)C(=O)N1CCC[C@H](N1)C(=O)OCC(C)(C)C2 (atropisomer, axis not shown; (M)) [Example 9]",
    "log10(IC50)": 2.87
  },
  {
    "COMPOUND": "C#CC1(F)CCN(C(=O)N(C)[C@H](C(=O)N[C@H]2Cc3cc(O)cc(c3)-c3ccc4c(c3)c(c(-c3cccnc3[C@H](C)OC)n4CC)CC(C)(C)COC(=O)[C@@H]3CCCN(N3)C2=O)C(C)C)CC1 (atropisomer, axis not shown; (M)) [Example 16]",
    "log10(IC50)": 1.89
  },
  {
    "COMPOUND": "CCn1c(-c2cc(N3CCN(CC(F)(F)F)CC3)cnc2[C@H](C)OC)c2c3cc(ccc31)-c1csc(n1)C[C@H](NC(=O)[C@H](C(C)C)N(C)C(=O)[C@H]1CCN(C(=O)[C@H](F)Cl)C1)C(=O)N1CCC[C@H](N1)C(=O)OCC(C)(C)C2 (atropisomer, axis not shown; (M)) [Example 26]",
    "log10(IC50)": 1.11
  }
]

Fill blank: measured log10(IC50) of the compound CCn1c(-c2cccnc2[C@H](C)OC)c2c3cc(ccc31)-c1cc(O)cc(c1)C[C@H](NC(=O)[C@H](C(C)C)N(C)C(=O)[C@H]1CCN(C(=O)C34CC3C4)C1)C(=O)N1CCC[C@H](N1)C(=O)OCC(C)(C)C2 (some centres unmarked) [Example 11] is ____.
2.58

Fill blank: measured log10(IC50) of the compound CO[C@@H](C)c1ncc(N2CCN(C)CC2)cc1-c1c2c3cc(ccc3n1CC(F)(F)F)-c1csc(n1)C[C@H](NC(=O)[C@H](C(C)C)N1CCCC3(CCN(C(=O)[C@H](F)Cl)C3)C1=O)C(=O)N1CCC[C@H](N1)C(=O)OCC(C)(C)C2 (some centres unmarked) [Example 19] is ____.
0.90

Fill blank: measured log10(IC50) of the compound C#CC1CN(C(=O)N(C)[C@H](C(=O)N[C@H]2Cc3cc(O)cc(c3)-c3ccc4c(c3)c(c(-c3cccnc3[C@H](C)OC)n4CC)CC(C)(C)COC(=O)[C@@H]3CCCN(N3)C2=O)C(C)C)C1 (atropisomer, axis not shown; (M)) [Example 14] is ____.
2.03
